# System name: human CB2 receptor (hCB2) (Homo sapiens)
# Sequence (P34972 whole entry): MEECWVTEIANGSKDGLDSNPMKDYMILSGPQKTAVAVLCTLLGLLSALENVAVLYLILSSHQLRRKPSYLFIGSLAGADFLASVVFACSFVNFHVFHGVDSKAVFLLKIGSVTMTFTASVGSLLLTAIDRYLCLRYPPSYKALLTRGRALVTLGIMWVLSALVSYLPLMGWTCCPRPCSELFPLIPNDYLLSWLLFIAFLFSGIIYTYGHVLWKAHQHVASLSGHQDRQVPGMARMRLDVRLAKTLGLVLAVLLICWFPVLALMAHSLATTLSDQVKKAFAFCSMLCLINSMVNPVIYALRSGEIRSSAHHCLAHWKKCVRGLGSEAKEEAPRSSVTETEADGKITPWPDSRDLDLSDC
# Assay procedure: cAMP assay at human CB2 receptor
# Assay type: cell-based
# Assay conditions: hCB2R; maximum measurable range 30 μM; read-out: EC50 (Potency at Human CB2 determined by cAMP Assay)
Consider the following molecules and their measured EC50 readings.

Examples with answers:
CCOC(=O)CN1CCc2c(c(-c3cc(F)c(F)cc3F)nn2C(=O)N[C@H](C(=O)NC)C(C)(C)C)C1; > 1 µM
CC(C)(C)[C@H](NC(=O)n1nc(-c2cc(F)c(F)cc2F)c2c1CCOC2)C(=O)N1CC[C@H](O)C1; < 1 µM
CN1CCc2c(-c3ccc(F)c(F)c3)nn(C(=O)N[C@H](C(=O)NCCO)C(C)(C)C)c2C1; > 1 µM

-- ask Lab note: need EC50 with human CB2 receptor (hCB2) (Homo sapiens) for entry "CC(C)C[C@H](NC(=O)[C@@H](NC(=O)n1nc(-c2cc(F)c(F)cc2F)c2c1CCN(C)C2)C(C)(C)C)C(N)=O" , please look it up.
-- reply > 1 µM

Sourced from patent US7741350B1
